# systemUnderTest: Neurotensin receptor NTS1 (HT29 cells/membranes) (human, UniProt P30989)
# Sequence (P30989 whole entry): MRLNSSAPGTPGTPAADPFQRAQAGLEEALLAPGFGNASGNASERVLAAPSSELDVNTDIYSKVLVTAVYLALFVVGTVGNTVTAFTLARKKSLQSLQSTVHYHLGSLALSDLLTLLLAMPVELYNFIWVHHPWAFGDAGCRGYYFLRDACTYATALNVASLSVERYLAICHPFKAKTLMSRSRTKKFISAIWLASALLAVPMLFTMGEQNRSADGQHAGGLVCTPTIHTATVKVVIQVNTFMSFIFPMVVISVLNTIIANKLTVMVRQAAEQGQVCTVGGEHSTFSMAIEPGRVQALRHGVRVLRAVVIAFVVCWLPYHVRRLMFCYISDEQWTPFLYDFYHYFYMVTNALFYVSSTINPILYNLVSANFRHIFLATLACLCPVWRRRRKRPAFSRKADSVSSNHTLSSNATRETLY
# assayExplanation: competition, HT29 cells
assayEndpoint: IC50 (nM)

[a] KPRRPYIL (not fully specified; N-methylated Pro7-Arg8 bond, Tle12; DOTA(Y) at Lys6) [DOTA(Y)-NT-20.3]
[b] KPRRPYIL (not fully specified; N-methylated Pro7-Arg8 bond, Tle12; DOTA(In) at Lys6) [DOTA(In)-NT-20.3]
Query block: Kindly compare a with b and tell me which has the lower IC50 figure. In your reply, give the label of the chosen option.
Result block: a
